Value source: patent US20240294644A1

# system-tested: T1, mouse VTCN1 protein (mouse, UniProt Q7TSP5 25-257, limits assumed)
# T1 construct: The construct and its tag are not described
# T1 sequence (looked up): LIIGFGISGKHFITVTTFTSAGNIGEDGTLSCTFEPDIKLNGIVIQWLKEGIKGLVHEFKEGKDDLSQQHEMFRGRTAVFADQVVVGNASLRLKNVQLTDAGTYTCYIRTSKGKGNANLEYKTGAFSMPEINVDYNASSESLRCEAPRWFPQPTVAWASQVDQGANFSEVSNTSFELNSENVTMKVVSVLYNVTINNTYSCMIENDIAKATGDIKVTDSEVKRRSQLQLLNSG
# procedure-summary: BLI (OCTET), mouse VTCN1 protein
readout-label: Kd (nM)
Express the result in nM but write the number alone.

Problem: Could you share which Kd value was measured for 12B5_44B1 (antibody, V domains shown, Fully human antibody) VH: QVQLVQSGAEVKKPGSSMKVSCKASGDTFSSYAISWVRQAPGQGLEWMAGIIPVFGTAHNAQKFQGRVTITADKSTSTAYMELSSLRSEDTAVYYCTRGGPYFDYWGQGTLVTVSS VL: EIVMTQSPATLSVSPGERAALSCRASQSVSSNLAWYQQKPGQAPRLLIYGVSTRATGIPDRFNGSGSGTEFTLTISSLQSEDFGAYYCQQYKKWPFIFGPGTKLEIK ?
Solution: 38
